- Target: Glycogen synthase kinase-3 alpha (Homo sapiens)
- Measurement protocol: concentration-response blocking of human GSK3A – biochemical, luminescence, cell-free homogeneous, retest, dose response (AID 463203)
- Protocol conditions: GSK-3 alpha enzyme, ADP-Glo luminescence, 60 min
Calls of active or inactive are those of the source.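 The calls were made as follows: active = more than half of replicate measurements showing over 20% loss of kinase signal relative to plate controls; inconclusive = some but at most half of replicates over 20% loss; inactive = no replicate over 20% signal loss.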
Outcome codes: active, inactive

- CCOC(=O)c1nnn(-c2nonc2N)c1COc1ccc(F)cc1: active
- CC(C)(C)NC(=O)/C(=C/c1ccccc1F)NC(=O)c1ccc([N+](=O)[O-])cc1: inactive
- COc1cccc(/C=c2\s/c(=C\C(=O)C(C)(C)C)[nH]c2=O)c1: inactive
- Cc1ccc(N(Cc2ccc([N+](=O)[O-])cc2)C(=O)c2ccco2)cc1C: inactive
- Cc1ccc(/C=N/NC(=O)c2nnn(-c3nonc3N)c2CN(C)C)o1: inactive

====

- Target: UniProtKB P49840
- Measurement protocol: concentration-response blocking of human GSK3A – biochemical, luminescence, cell-free homogeneous, retest, dose response (AID 463203)
- Protocol conditions: GSK-3 alpha enzyme, ADP-Glo luminescence, 60 min
Activity calls are given as the source filed them.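 How the source made its calls: active means more than half of replicate measurements showing over 20% loss of kinase signal relative to plate controls; inconclusive means some but at most half of replicates over 20% loss; inactive means no replicate over 20% signal loss.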
Outcome codes: active, inactive

* COc1ccccc1OCCNC(=O)C1CCN(C(C)=O)CC1 | inactive
* C=CCn1c(O)c(C(C)=NCCCn2ccnc2)c(=O)[nH]c1=O | active
* COc1ccc(S(=O)(=O)N[C@H](C(=O)O)C(C)C)cc1 | inactive
* N#CC1=C2SCN(c3ccccc3)CN2C(=O)CC1c1ccccc1Cl (stereo unspecified) | inactive
* O=C1c2cnc3nc(SCc4ccccc4)nn3c2CC2c3ccccc3CCN12 (stereo unspecified) | inactive
* N#CC1=C2SCN(Cc3ccco3)CN2C(=O)CC1c1c(F)cccc1Cl (stereo unspecified) | inactive
* Cc1ccccc1NC1=NCCCS1 | inactive
* Cc1ccc(N=c2oc3cc(O)ccc3cc2C(N)=O)cc1 | active
* COc1ccc(NC(=O)CSc2nnc(-c3cccc(O)c3)o2)cc1 | inactive
* COc1cccc(NC(=O)CN(C)C(=O)C23CC4CC(CC(Cl)(C4)C2)C3)c1 | inactive
* CC1=C(C(=O)OCc2ccc3c(c2)OCO3)C(c2ccc(F)cc2)NC(=O)N1 (stereo unspecified) | active

====

- Target: Glycogen synthase kinase-3 alpha (Homo sapiens) (UniProt P49840)
- Sequence (P49840 whole entry, looked up): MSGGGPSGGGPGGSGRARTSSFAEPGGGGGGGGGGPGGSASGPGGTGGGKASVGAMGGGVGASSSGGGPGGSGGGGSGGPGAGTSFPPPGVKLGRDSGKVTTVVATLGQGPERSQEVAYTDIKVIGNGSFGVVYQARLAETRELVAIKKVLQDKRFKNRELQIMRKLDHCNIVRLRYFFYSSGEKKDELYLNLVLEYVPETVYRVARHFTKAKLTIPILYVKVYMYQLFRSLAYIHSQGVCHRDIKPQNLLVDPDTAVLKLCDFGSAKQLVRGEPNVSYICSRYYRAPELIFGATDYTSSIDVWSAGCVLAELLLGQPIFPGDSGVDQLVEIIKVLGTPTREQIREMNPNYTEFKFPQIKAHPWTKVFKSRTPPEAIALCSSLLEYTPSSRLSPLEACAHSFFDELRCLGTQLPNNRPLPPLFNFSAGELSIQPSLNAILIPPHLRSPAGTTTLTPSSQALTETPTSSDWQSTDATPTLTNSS
- Measurement protocol: concentration-response blocking of human GSK3A – biochemical, luminescence, cell-free homogeneous, retest, dose response (AID 463203)
- Protocol conditions: GSK-3 alpha enzyme, ADP-Glo luminescence, 60 min
The source made the active and inactive calls.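 Rule for the calls: active = more than half of replicate measurements showing over 20% loss of kinase signal relative to plate controls; inconclusive = some but at most half of replicates over 20% loss; inactive = no replicate over 20% signal loss.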
Reported metric: AC50

- Cc1cc(-c2ccccc2)c2c3c(c(-c4ccccc4)n2n1)c(=O)n(C)c(=O)n3C: > 30 µM (inactive)
- O=C(NC(=S)NCC1COc2ccccc2O1)c1ccccc1 (stereo not drawn): > 30 µM (inactive)
- O=C(COC(=O)Cc1ccc(F)cc1)Nc1ccc(Cl)cn1: 14.1 µM
- CCCCOC(=O)C1=C(C)Nc2ncnn2C1c1ccc(OC)c(OC)c1OC (stereo not drawn): 12.4 µM
- CCOC(=O)c1cnc2cc(F)c(F)cc2c1N1CCN(C)CC1: > 30 µM (inactive)
- CCOc1ccc(Cn2nnc(C(=O)Nc3cc(OC)cc(OC)c3)c2N)cc1: 13.7 µM
- Cc1ccnc(NC(=O)Cn2c(=O)oc3cc(S(=O)(=O)N4CCCC4)ccc32)c1: 26.9 µM
- CC(=O)c1cccc(NC(=S)NC(=O)CC(C)C)c1: > 30 µM (inactive)
- Cc1ccc(OCC(=O)N2CCN(c3nnc(-c4ccccc4)c4ccccc34)CC2)cc1: > 30 µM (inactive)
- Cc1cc(/C=N/Nc2ccc([N+](=O)[O-])cn2)c(C)n1-c1cccc(C(=O)O)c1: 14.6 µM
- CCOC(=O)C1=C(c2ccccc2)Nc2ncnn2C1c1cccc(OC)c1OC (stereo not drawn): 9 µM
- Nc1ccc2c(c1)C(=O)c1ccccc1C2=O: > 30 µM (inactive)
- O=c1cc(-c2ccccc2)[nH]n1-c1ccc([N+](=O)[O-])cc1: > 30 µM (inactive)
- Cc1nc(Nc2ccc(S(N)(=O)=O)cc2)oc1C: > 30 µM (inactive)
- CC(C)=CCc1c(O)cc(O)c2c(=O)c(O[C@@H]3O[C@@H](C)[C@H](O)[C@@H](O)[C@H]3O)c(-c3ccc(O)cc3)oc12: 19.6 µM
- CCOC(=O)c1cccc(NC(=O)C2CCCN2S(=O)(=O)c2cccc3cccnc23)c1 (stereo not drawn): 29.5 µM
- COc1ccc(S(=O)(=O)Nc2ccc(S(=O)(=O)Nc3nc(C)cc(C)n3)cc2)cc1OC: > 30 µM (inactive)
- COc1cc(C2CC(=O)N3CN(Cc4ccccc4)CSC3=C2C#N)ccc1OCc1ccccc1 (stereo not drawn): > 30 µM (inactive)

====

- Target: Glycogen synthase kinase-3 alpha (Homo sapiens) (UniProt P49840)
- Measurement protocol: concentration-response blocking of human GSK3A – biochemical, luminescence, cell-free homogeneous, retest, dose response (AID 463203)
- Protocol conditions: GSK-3 alpha enzyme, ADP-Glo luminescence, 60 min
Activity calls are given as the source filed them.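 Rule for the calls: active = more than half of replicate measurements showing over 20% loss of kinase signal relative to plate controls; inconclusive = some but at most half of replicates over 20% loss; inactive = no replicate over 20% signal loss.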
Reported metric: AC50

- NC(=O)c1c(NC(=O)C(=O)N2CCOCC2)sc2c1CCC2: > 30 µM (inactive)
- CCCCC(=O)Nc1ccc2c(c1)C(=O)NC2=O: 15.6 µM
- N#C/C(=N\Nc1ccc(Cl)cc1)C(N)=S: > 30 µM (inactive)
- CCOC(=O)c1nc2sc3c(c2c(=O)[nH]1)CCC(C)C3 (centres undefined): > 30 µM (inactive)

====

- Target: UniProt:P49840
- Measurement protocol: concentration-response blocking of human GSK3A – biochemical, luminescence, cell-free homogeneous, retest, dose response (AID 463203)
- Protocol conditions: GSK-3 alpha enzyme, ADP-Glo luminescence, 60 min
Activity calls are given as the source filed them.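 How the source made its calls: active means more than half of replicate measurements showing over 20% loss of kinase signal relative to plate controls; inconclusive means some but at most half of replicates over 20% loss; inactive means no replicate over 20% signal loss.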
Outcome codes: active, inactive

* Nc1nonc1-n1nnc(C(=O)N/N=C/c2ccco2)c1-c1ccccc1 | active
* COc1cc(CN2CCCN(C)CC2)c([N+](=O)[O-])cc1OC | inactive
* Nc1nc(Nc2ccc(Cl)cc2)n[nH]1 | inactive
* Cc1ccc(-c2cn3cccnc3n2)cc1NC(=O)c1cccs1 | inactive
* CN1CCC(=NNC(=O)C(=O)NC2CCCC2)CC1 | inactive
* CC(=O)c1sc(Nc2cccc(C)c2)nc1C | inactive
* Cc1ccc(/C=C2\C(=O)Nc3ccccc32)o1 | active
* Cc1csc(NC(=O)C2CCCN(S(=O)(=O)c3cnc[nH]3)C2)n1 (stereo not drawn) | inactive
* CC(=O)Nc1cccc(-c2csc(Nc3ccccn3)n2)c1 | inactive
* C[C@H](CO)N1C[C@H](C)[C@@H](CN(C)S(=O)(=O)c2cccs2)Oc2c(NS(=O)(=O)c3ccc(F)cc3)cccc2C1=O | inactive
* Fc1ccccc1N1CCN(CCCNc2ccc3nncn3n2)CC1 | inactive
* CCC(C)[C@H](NC(=O)NCc1ccccc1Cl)C(=O)OC (stereo partly drawn) | inactive
* Cc1ccc(NC(=O)CSCc2nc3c(nnn3Cc3ccc(F)cc3)c(=O)[nH]2)c(C)c1 | inactive

====

- Target: Glycogen synthase kinase-3 alpha (Homo sapiens) (UniProt P49840)
- Measurement protocol: concentration-response blocking of human GSK3A – biochemical, luminescence, cell-free homogeneous, retest, dose response (AID 463203)
- Protocol conditions: GSK-3 alpha enzyme, ADP-Glo luminescence, 60 min
Active and inactive are the calls of the source.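 The calls were made as follows: active = more than half of replicate measurements showing over 20% loss of kinase signal relative to plate controls; inconclusive = some but at most half of replicates over 20% loss; inactive = no replicate over 20% signal loss.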
Outcome codes: yes for active, no for inactive

- O=C(NCCCN1CCOCC1)c1ccc(Cl)cc1[N+](=O)[O-]: no
- Cc1ccc(-c2noc(CSc3nnnn3-c3ccccc3)n2)cc1: no
- CCCCOC(=O)C1=C(C)Nc2ncnn2C1c1cc(OC)ccc1OC (stereo not drawn): no
- COc1cc(C2c3sc(=O)[nH]c3SC3C(=O)N(c4ccc(Br)cc4)C(=O)C32)ccc1O (stereo not drawn): no
- CCCCSc1nc(N)c(C#N)c(-c2cccs2)c1C#N: no
- COc1ccc(-c2noc(CSc3nc(-c4ccccc4)cc(=O)[nH]3)n2)cc1OC: no
- CN1/C(=C/C(=S)NC(=O)C2CCC2)C(C)(C)c2ccccc21: no
- Cc1cc(=O)[nH]c2c(C)c(N)ccc12: no
- CN1/C(=C\C=C2/SC(=S)NC2=O)C(C)(C)c2ccccc21: yes
- Cc1cccc(C)c1NC(=O)COC(=O)Cc1ccsc1: no
- CCCc1cc(C(N)=O)c(NC(=O)C2CCCO2)s1 (stereo not drawn): no
- O=C(CSc1nnc(-c2ccncc2)s1)Nc1ccccc1: no
- NC(=O)c1cn(C2OC(CO)C(O)C2O)c2ncnc(N)c12 (stereo not drawn): yes
- CC(=O)c1sc(NC(=O)CN2C(=O)C3CCCCC3C2=O)nc1-c1ccccc1 (stereo not drawn): yes
- CCc1ccc(N2CSC3=C(C#N)C(c4cccs4)CC(=O)N3C2)cc1 (stereo not drawn): yes
- CCOc1ccc(-n2c(SCC(=O)Nc3ccccc3C)n[nH]c2=O)cc1: no
- CCn1c2ccccc2c2nnc(SCC(N)=O)nc21: yes
- CSc1ccc(CN2CCN(Cc3ccc([N+](=O)[O-])cc3)CC2)cc1: no
- Nc1nc(-c2ccccc2)cc(-c2ccccc2O)n1: yes
- CS(=O)(=O)Nc1ccc(-c2ccc(/C=C3\SC(N)=NC3=O)o2)cc1: yes
- Cc1ccc2c(c1)Oc1ccc(NC(=O)CCl)cc1C(=O)N2: no
- O=c1[nH]c2c(s1)C(c1cccnc1)C1C3CCC(C3)C1S2 (stereo not drawn): yes
- O=C(NCCO)c1ccccc1O: no
- CC(OC(=O)c1cccc(N2C(=O)c3ccccc3C2=O)c1)C(=O)Nc1ccc(N(C)C)cc1 (stereo not drawn): no
- Cc1cc(OC(=O)c2c(C)cc(OC(=O)c3c(C)cc(O)cc3O)cc2O)cc(O)c1C(=O)O: no
- CN(C)S(=O)(=O)c1cccc(NC(=S)NN=C(Cc2ccccc2)Cc2ccccc2)c1: no
- CC1(C)Cc2nc3sc4c(SCC(=O)O)ncnc4c3cc2CO1: yes
- NC(=O)c1cc([N+](=O)[O-])ccc1NCc1ccc(O)cc1: yes
- Cc1cccc(C)c1OC(=O)Cc1ccccc1: no
- c1ccc(CN2CCN(CCCNc3ccc4nnc(-c5ccccc5)n4n3)CC2)cc1: no
- NS(=O)(=O)c1ccc(NC(=O)CSc2nnc(-c3ccc(O)cc3)o2)cc1: yes
- COC(=O)CSc1nc(NCC(C)C)nc(N2CCOCC2)n1: no
- COc1ccc2cc(C(=O)NCc3ccco3)c(=O)oc2c1: no
- O=C(c1ccccc1)c1cnc(Nc2ccccc2Cl)s1: no
- COc1ccc(O)c(-c2nc(N)nc(N)n2)c1: yes
- CCC(=NCCCO)c1c(O)n(-c2ccc(OC)cc2)c(=O)[nH]c1=O: no
- COc1ccc(-c2noc(CCC(=O)Nc3nc4ccccc4s3)n2)cc1: no
- COc1ccc(C(=O)Nc2nncs2)cc1S(=O)(=O)N1CC(c2ccccc2)CC1=O (stereo not drawn): no
- CCN1C(=O)/C(=C\c2ccco2)C(C(=O)OC)=C1C: no
- COc1ccc2ccccc2c1/C=N/NC(=O)c1sc(N)c(C#N)c1C: yes
- O=C1CCCC/C1=C\Nc1ccc(O)cc1: yes
- O=C(Nc1ccccc1C(=O)N1CCOCC1)c1cccnc1: no
- Nc1nc(SCC(=O)Nc2ccc(Oc3ccccc3)cc2)n[nH]1: no
